Form field: selectivity ratio (one value per entry).
Assay: Selectivity index, ratio of CC50 for human A549 cells to MIC for Candida parapsilosis ATCC 22019
Format: toxicity
Details: read-out: Selectivity Index

# smiles notation, selectivity ratio
data = [
    ("COc1ccc(N/N=C/c2ccc(-c3cccc(/C=N/Nc4ccc(OC)cc4)c3)cc2)cc1", 0.6),
    ("Fc1ccc(N/N=C/c2ccc(-c3ccc(/C=N/Nc4ccc(F)cc4)cc3)cc2)cc1", 0.6),
    ("Fc1cccc(N/N=C/c2ccc(-c3cccc(/C=N/Nc4cccc(F)c4)c3)cc2)c1", 0.4),
    ("Fc1ccc(N/N=C/c2ccc(-c3cccc(/C=N/Nc4ccc(F)cc4)c3)cc2)cc1", 1),
    ("COc1ccc(N/N=C/c2ccc(-c3ccc(/C=N/Nc4ccc(OC)cc4)cc3)cc2)cc1", 2),
    ("C(=N\\Nc1ccccc1)/c1ccc(-c2cccc(/C=N/Nc3ccccc3)c2)cc1", 1),
]

====

Experiment: Selectivity index, ratio of compound concentration showing <25% hemolysis in mouse RBC to MIC for Candida krusei ATCC 6258
Assay type: toxicity
Conditions: mouse red blood cells (RBC), read-out: Selectivity Index
quantity kind: selectivity ratio

# smiles notation, quantity kind, observed result
measured = [
    ("Fc1ccc(N/N=C/c2ccc(-c3cccc(/C=N/Nc4ccc(F)cc4F)c3)cc2)c(F)c1", "selectivity ratio", "1 to 32"),
]

====

Experiment: Selectivity index, ratio of CC50 for human A549 cells to MIC for Candida glabrata ATCC 2001
Assay type: toxicity
Conditions: read-out: Selectivity Index

# smiles notation, selectivity ratio
measured = [
    ("C/C(=N\\Nc1ccc(F)cc1)c1ccc(-c2ccc(/C(C)=N/Nc3ccc(F)cc3)cc2)cc1", 1.1),
    ("C(=N\\Nc1ccccc1)/c1ccc(-c2ccc(/C=N/Nc3ccccc3)cc2)cc1", 0.6),
    ("Fc1cccc(N/N=C/c2ccc(-c3ccc(/C=N/Nc4cccc(F)c4)cc3)cc2)c1", 1),
    ("C(=N\\Nc1ccccc1)/c1ccc(-c2cccc(/C=N/Nc3ccccc3)c2)cc1", 1),
    ("Fc1ccc(N/N=C/c2ccc(-c3cccc(/C=N/Nc4ccc(F)cc4)c3)cc2)cc1", 1),
    ("Fc1ccc(N/N=C/c2ccc(-c3cccc(/C=N/Nc4ccc(F)cc4F)c3)cc2)c(F)c1", 1.1),
    ("COc1ccc(N/N=C/c2ccc(-c3cccc(/C=N/Nc4ccc(OC)cc4)c3)cc2)cc1", 2.3),
    ("Fc1cccc(N/N=C/c2ccc(-c3cccc(/C=N/Nc4cccc(F)c4)c3)cc2)c1", 0.4),
    ("Fc1ccc(N/N=C/c2ccc(-c3ccc(/C=N/Nc4ccc(F)cc4)cc3)cc2)cc1", 1.1),
    ("COc1ccc(N/N=C/c2ccc(-c3ccc(/C=N/Nc4ccc(OC)cc4)cc3)cc2)cc1", 4),
    ("Fc1ccccc1N/N=C/c1ccc(-c2cccc(/C=N/Nc3ccccc3F)c2)cc1", 0.5),
]

====

Assay: Selectivity index, ratio of CC50 for human A549 cells to MIC for fluconazole/ITC-resistant Candida albicans ATCC 64124
Type: toxicity
Settings: read-out: Selectivity Index
Group membership follows selectivity ratio per the scheme range A = under 1, range B = from 1 up to 2, range C = 2 and over

# smiles notation, label
rows = [
    ("Fc1ccc(N/N=C/c2ccc(-c3ccc(/C=N/Nc4ccc(F)cc4)cc3)cc2)cc1", "range B"),
    ("COc1ccc(N/N=C/c2ccc(-c3ccc(/C=N/Nc4ccc(OC)cc4)cc3)cc2)cc1", "range C"),
    ("Fc1cccc(N/N=C/c2ccc(-c3cccc(/C=N/Nc4cccc(F)c4)c3)cc2)c1", "range A"),
    ("C/C(=N\\Nc1ccc(F)cc1)c1ccc(-c2ccc(/C(C)=N/Nc3ccc(F)cc3)cc2)cc1", "range C"),
    ("Fc1ccc(N/N=C/c2ccc(-c3cccc(/C=N/Nc4ccc(F)cc4F)c3)cc2)c(F)c1", "range C"),
    ("Fc1ccccc1N/N=C/c1ccc(-c2cccc(/C=N/Nc3ccccc3F)c2)cc1", "range C"),
    ("C(=N\\Nc1ccccc1)/c1ccc(-c2ccc(/C=N/Nc3ccccc3)cc2)cc1", "range A"),
    ("COc1ccc(N/N=C/c2ccc(-c3cccc(/C=N/Nc4ccc(OC)cc4)c3)cc2)cc1", "range B"),
]

====

# key: entry, value: hemolysis at 1 h, 3.9 ug/ml
Assay: Hemolytic activity in mouse RBC at 3.9 ug/ml after 1 hr relative to control
Type: ADME, cell-based, Erythrocyte
Settings: red blood cells (erythrocytes), read-out: Activity
quantity kind: hemolysis at 1 h, 3.9 ug/ml (%)

# smiles notation, quantity kind, endpoint unit, observed result
data = [
    ("Fc1ccc(N/N=C/c2ccc(-c3cccc(/C=N/Nc4ccc(F)cc4)c3)cc2)cc1", "hemolysis at 1 h, 3.9 ug/ml", "%", 4.3),
    ("N=C(N)N/N=C/c1ccc(-c2cccc(/C=N/NC(=N)N)c2)cc1", "hemolysis at 1 h, 3.9 ug/ml", "%", 1.2),
    ("C(=N\\Nc1ccccc1)/c1ccc(-c2cccc(/C=N/Nc3ccccc3)c2)cc1", "hemolysis at 1 h, 3.9 ug/ml", "%", 1.5),
    ("Fc1cccc(N/N=C/c2ccc(-c3cccc(/C=N/Nc4cccc(F)c4)c3)cc2)c1", "hemolysis at 1 h, 3.9 ug/ml", "%", 2.5),
    ("Fc1ccc(N/N=C/c2ccc(-c3ccc(/C=N/Nc4ccc(F)cc4)cc3)cc2)cc1", "hemolysis at 1 h, 3.9 ug/ml", "%", 0.7),
    ("C(=N\\Nc1ccccc1)/c1ccc(-c2ccc(/C=N/Nc3ccccc3)cc2)cc1", "hemolysis at 1 h, 3.9 ug/ml", "%", 3.4),
    ("COc1ccc(N/N=C/c2ccc(-c3ccc(/C=N/Nc4ccc(OC)cc4)cc3)cc2)cc1", "hemolysis at 1 h, 3.9 ug/ml", "%", 2.8),
    ("Fc1ccc(N/N=C/c2ccc(-c3cccc(/C=N/Nc4ccc(F)cc4F)c3)cc2)c(F)c1", "hemolysis at 1 h, 3.9 ug/ml", "%", 4.2),
    ("COc1ccc(N/N=C/c2ccc(-c3cccc(/C=N/Nc4ccc(OC)cc4)c3)cc2)cc1", "hemolysis at 1 h, 3.9 ug/ml", "%", 3),
]

====

Tested on: Aspergillus flavus
Assay: Antifungal activity against Aspergillus flavus ATCC MYA-3631 measured after 48 hrs by CLSI M38-A2 protocol based method
Assay type: functional
Conditions: ATCC MYA-3631, 48 h
The reader will find reported MIC values listed item by item below.
quantity kind: MIC

# smiles notation, observed result
data = [
    ("Clc1ccc(N/N=C/c2ccc(-c3cccc(/C=N/Nc4ccc(Cl)cc4)c3)cc2)cc1", "> 31.3 µg/mL"),
    ("C(=N\\Nc1ccccc1)/c1ccc(-c2ccc(/C=N/Nc3ccccc3)cc2)cc1", "3.9 µg/mL"),
    ("N#Cc1ccc(N/N=C/c2ccc(-c3ccc(/C=N/Nc4ccc(C#N)cc4)cc3)cc2)cc1", "> 31.3 µg/mL"),
    ("Fc1cccc(N/N=C/c2ccc(-c3cccc(/C=N/Nc4cccc(F)c4F)c3)cc2)c1F", "> 31.3 µg/mL"),
    ("C[C@@H](c1ncncc1F)[C@](O)(Cn1cncn1)c1ccc(F)cc1F", "> 31.3 µg/mL"),
    ("Clc1ccc(N/N=C/c2ccc(-c3ccc(/C=N/Nc4ccc(Cl)cc4)cc3)cc2)cc1", "> 31.3 µg/mL"),
    ("C(=N\\Nc1ccccc1)/c1ccc(-c2cccc(/C=N/Nc3ccccc3)c2)cc1", "3.9 µg/mL"),
    ("Fc1ccc(N/N=C/c2ccc(-c3ccc(/C=N/Nc4ccc(F)cc4F)cc3)cc2)c(F)c1", "> 31.3 µg/mL"),
    ("CC[C@H](C)C[C@H](C)CCCCCCCCC(=O)N[C@H]1C[C@@H](O)[C@@H](NCCN)NC(=O)[C@@H]2[C@@H](O)CCN2C(=O)[C@H]([C@H](O)CCN)NC(=O)[C@H]([C@H](O)[C@@H](O)c2ccc(O)cc2)NC(=O)[C@@H]2C[C@@H](O)CN2C(=O)[C@H]([C@@H](C)O)NC1=O", "> 31.3 µg/mL"),
]

====

Experiment: Selectivity index, ratio of compound concentration showing <25% hemolysis in mouse RBC to MIC for fluconazole/ITC-resistant Candida albicans ATCC 64124
Type: toxicity
Conditions: mouse red blood cells (RBC), read-out: Selectivity Index

# smiles notation, selectivity ratio
data = [
    ("Fc1ccc(N/N=C/c2ccc(-c3cccc(/C=N/Nc4ccc(F)cc4F)c3)cc2)c(F)c1", "1 to 32"),
]

====

Test system: A549
Test: Cytotoxicity against human A549 cells after 24 hrs by resazurin based assay
Assay type: cell-based
Details: a549, 24 h

# smiles notation, endpoint unit, relational operator, CC50
data = [
    ("Fc1cccc(N/N=C/c2ccc(-c3ccc(/C=N/Nc4cccc(F)c4)cc3)cc2)c1", "µg/mL", ">", 31),
    ("Fc1ccc(N/N=C/c2ccc(-c3ccc(/C=N/Nc4ccc(F)cc4)cc3)cc2)cc1", "µg/mL", "=", 17.7),
    ("COc1ccc(N/N=C/c2ccc(-c3ccc(/C=N/Nc4ccc(OC)cc4)cc3)cc2)cc1", "µg/mL", ">", 31),
    ("C(=N\\Nc1ccccc1)/c1ccc(-c2cccc(/C=N/Nc3ccccc3)c2)cc1", "µg/mL", ">", 31),
    ("N=C(N)N/N=C/c1ccc(-c2cccc(/C=N/NC(=N)N)c2)cc1", "µg/mL", "=", 5.3),
    ("Fc1cccc(N/N=C/c2ccc(-c3cccc(/C=N/Nc4cccc(F)c4)c3)cc2)c1", "µg/mL", "=", 11.7),
    ("COc1ccc(N/N=C/c2ccc(-c3cccc(/C=N/Nc4ccc(OC)cc4)c3)cc2)cc1", "µg/mL", "=", 18.2),
    ("Fc1ccc(N/N=C/c2ccc(-c3cccc(/C=N/Nc4ccc(F)cc4)c3)cc2)cc1", "µg/mL", ">", 31),
    ("Fc1ccccc1N/N=C/c1ccc(-c2cccc(/C=N/Nc3ccccc3F)c2)cc1", "µg/mL", "=", 16.4),
]

// provenance: ChEMBL document CHEMBL4411307
